target: T1, cynomolgus IgE (recombinant chimaeric D12 variable region / cynomolgus IgE constant region) (cynomolgus monkey (constant region)); assay: HTRF receptor-ligand competition, scFv titrated; Eu-cryptate cynomolgus IgE binding to human FcεRI-Fc; geomean
T1 construct: also called cyno IgE; cynomolgus IgE (in house HEK-EBNA derived)
T1 sequence (heavy, as listed by the source limits assumed, chain 1 of 2): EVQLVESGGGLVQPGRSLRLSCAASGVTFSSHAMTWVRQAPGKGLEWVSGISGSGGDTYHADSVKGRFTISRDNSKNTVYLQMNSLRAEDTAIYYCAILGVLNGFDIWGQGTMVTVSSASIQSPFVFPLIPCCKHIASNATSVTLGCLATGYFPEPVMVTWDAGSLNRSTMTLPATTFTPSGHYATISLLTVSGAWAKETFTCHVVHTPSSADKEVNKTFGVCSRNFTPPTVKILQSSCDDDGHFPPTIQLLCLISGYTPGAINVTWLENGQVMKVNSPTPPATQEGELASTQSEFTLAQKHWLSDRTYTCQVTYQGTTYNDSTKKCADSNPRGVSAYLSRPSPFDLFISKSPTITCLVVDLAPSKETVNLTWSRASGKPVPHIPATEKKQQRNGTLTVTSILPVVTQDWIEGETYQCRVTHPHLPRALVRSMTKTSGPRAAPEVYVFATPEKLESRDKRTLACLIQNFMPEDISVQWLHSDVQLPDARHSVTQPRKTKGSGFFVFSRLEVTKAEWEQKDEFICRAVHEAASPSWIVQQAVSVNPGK
T1 sequence (light, as listed by the source limits assumed, chain 2 of 2): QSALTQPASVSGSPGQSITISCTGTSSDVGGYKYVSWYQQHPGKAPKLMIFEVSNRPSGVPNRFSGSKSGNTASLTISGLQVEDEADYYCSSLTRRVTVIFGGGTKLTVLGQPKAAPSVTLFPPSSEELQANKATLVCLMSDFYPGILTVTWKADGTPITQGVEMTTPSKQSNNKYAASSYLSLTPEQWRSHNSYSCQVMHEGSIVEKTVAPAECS
recorded_endpoint: pIC50
Answers are plain numbers, as −log10 of the molar value.

Antibody 8 (scFv) (scFv, V domains shown, purified scFv) VH: EVQLLESGGGLVQPGGSLRLSCAAPGFTFSSYAMSWVRQAPGKGLEWVSAISGGSGGRTYYADSVKGRFTISRDNSKNTLYLQMNSLRAEDTAVYYCARHIAVAGTRGFDYWGRGTLVTVSS VL: SYVLTQPPSVSVSPGQTASITCSGDKLGDTYASWYRQRSGQSPVLVIYQDDKRPSGIPERFSGSNSGNTATLTISGTHTMDEADYYCLAWDTRTSGAVFGGGTKLTVL = 6.36

For the 2 binders below, give their pIC50 values.
1. Antibody 34 (scFv) (scFv, V domains shown, purified scFv) VH: EVQLLESGGGLVQPGGSLRLSCAAPGFTLSSYAMSWVRQAPGKGLEWVSAISGGSGGRTYYADSVKGRFTISRDNSKNTLYLQMNSLRAEDTAVYYCARHIAVAGTRGFDYWGRGTLVTVSS VL: SYVLTQPPSVSASPGQTASITCSGDKLGDTYASWYRQRSGQSPVLVIYQDDKRPPGIPERFSGSNSGNTATLTIRGTHTMDEADYYCLAWDTRTSGAVFGGGTKLSVL
2. Antibody 3 (scFv) (scFv, V domains shown, purified scFv) VH: EVQLLESGGGLVQPGGSLRLSCAASGFTFSSYAMSWVRQAPGKGLEWVSAISGSGGRTYYADSVKGRFTISRDNSKNTLYLQMNSLRAEDTAVYYCARHIAVAGTRGFDYWGRGTLVTVSS VL: SYVLTQPPSVSVSPGQTASITCSGDKLGDTYASWYRQRSGQSPVLVIYQDDKRPSGIPERFSGSNSGDTATLTISGTHTMDEADYYCLAWDTRTSGAVFGGGTKLTVL

1: 6.30; 2: 6.63
